Reference for the values: ChEMBL document CHEMBL2218924

# maps each entry to its residual activity
biological target: Ribosomal protein S6 kinase alpha-6 (Homo sapiens) (UniProt Q9UK32); settings: at 10 µM
Sequence (Q9UK32 whole entry): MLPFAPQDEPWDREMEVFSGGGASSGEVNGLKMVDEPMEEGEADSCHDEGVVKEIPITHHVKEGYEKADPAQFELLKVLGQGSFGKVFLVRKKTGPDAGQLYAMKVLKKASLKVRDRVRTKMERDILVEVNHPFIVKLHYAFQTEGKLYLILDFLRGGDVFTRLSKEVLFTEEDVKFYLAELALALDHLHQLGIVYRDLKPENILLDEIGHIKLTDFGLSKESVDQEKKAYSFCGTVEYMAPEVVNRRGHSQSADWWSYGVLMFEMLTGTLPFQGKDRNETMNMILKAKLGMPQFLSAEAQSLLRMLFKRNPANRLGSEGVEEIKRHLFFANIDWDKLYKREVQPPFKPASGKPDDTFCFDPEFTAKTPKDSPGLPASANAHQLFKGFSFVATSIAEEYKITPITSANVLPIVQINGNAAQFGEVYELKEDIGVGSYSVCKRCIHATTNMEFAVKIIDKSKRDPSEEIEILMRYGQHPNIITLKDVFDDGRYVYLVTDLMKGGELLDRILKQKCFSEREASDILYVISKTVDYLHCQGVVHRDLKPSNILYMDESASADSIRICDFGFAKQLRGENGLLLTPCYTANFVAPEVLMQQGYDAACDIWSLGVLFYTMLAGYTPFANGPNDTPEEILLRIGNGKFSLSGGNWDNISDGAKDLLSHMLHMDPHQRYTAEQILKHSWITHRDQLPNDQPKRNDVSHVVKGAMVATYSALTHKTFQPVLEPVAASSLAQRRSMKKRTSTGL
Hi! Could you send only the number? It should be in %, unit omitted.

The examples below pair each entry with its known result.
{"Query Smiles": "Cc1ccc(S(=O)(=O)/C=C/C#N)cc1", "Assay Endpoint": "residual activity", "Meas Value": 112}
{"Query Smiles": "Cn1cc(/C=C2\\C(=O)Nc3ccc(S(N)(=O)=O)cc32)c2ccccc21", "Assay Endpoint": "residual activity", "Meas Value": 10}
{"Query Smiles": "Oc1n[nH]c2nnc(-c3c(-c4ccccc4)nn4ccccc34)cc12", "Assay Endpoint": "residual activity", "Meas Value": 106}
{"Query Smiles": "Cn1cnc2cc3c(Nc4cccc(Br)c4)ncnc3cc21", "Assay Endpoint": "residual activity", "Meas Value": 68}
{"Query Smiles": "O=C1NC(=O)c2c1c1c3ccccc3[nH]c1c1[nH]c3cc(Br)ccc3c21", "Assay Endpoint": "residual activity", "Meas Value": 82}

Let's switch to this molecule now.
Consider CCOc1cc2ncnc(Nc3cccc(Br)c3)c2cc1OCC . Its measured residual activity is 46

----------
target: Tyrosine-protein kinase JAK3 (Homo sapiens) (UniProt P52333); settings: at 10 µM
Sequence (P52333 whole entry): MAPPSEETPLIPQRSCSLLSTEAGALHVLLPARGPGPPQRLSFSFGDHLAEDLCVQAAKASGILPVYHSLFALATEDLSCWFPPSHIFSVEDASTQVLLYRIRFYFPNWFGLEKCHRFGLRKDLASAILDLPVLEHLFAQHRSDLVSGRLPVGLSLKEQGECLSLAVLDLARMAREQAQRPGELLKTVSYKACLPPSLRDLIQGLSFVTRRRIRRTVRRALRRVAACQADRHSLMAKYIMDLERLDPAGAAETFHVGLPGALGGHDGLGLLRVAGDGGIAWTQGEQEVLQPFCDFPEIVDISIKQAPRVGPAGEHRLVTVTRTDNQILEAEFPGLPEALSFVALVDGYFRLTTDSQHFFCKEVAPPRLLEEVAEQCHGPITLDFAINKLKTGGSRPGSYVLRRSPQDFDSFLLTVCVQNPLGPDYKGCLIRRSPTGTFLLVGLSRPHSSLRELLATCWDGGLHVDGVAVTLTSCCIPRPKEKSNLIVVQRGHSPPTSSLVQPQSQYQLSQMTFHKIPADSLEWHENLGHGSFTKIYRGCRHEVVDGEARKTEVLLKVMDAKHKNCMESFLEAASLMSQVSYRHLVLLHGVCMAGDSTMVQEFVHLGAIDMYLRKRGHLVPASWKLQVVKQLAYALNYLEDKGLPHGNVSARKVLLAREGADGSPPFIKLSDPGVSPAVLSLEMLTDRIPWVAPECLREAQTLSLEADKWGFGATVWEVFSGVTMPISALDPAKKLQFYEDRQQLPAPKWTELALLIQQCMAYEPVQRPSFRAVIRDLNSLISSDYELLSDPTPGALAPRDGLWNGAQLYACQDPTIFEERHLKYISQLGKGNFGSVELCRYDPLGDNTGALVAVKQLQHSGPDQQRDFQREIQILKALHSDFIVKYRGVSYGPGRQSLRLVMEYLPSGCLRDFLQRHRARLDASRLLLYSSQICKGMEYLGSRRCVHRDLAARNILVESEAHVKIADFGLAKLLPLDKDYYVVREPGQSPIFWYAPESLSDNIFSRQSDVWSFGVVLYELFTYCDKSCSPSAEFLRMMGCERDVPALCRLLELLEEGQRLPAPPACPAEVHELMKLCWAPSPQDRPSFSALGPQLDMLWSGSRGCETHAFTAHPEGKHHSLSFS
Assay Endpoint: residual activity (%)
Express your answer in %, writing the number without its unit.

Solved cases (6 shown):
{"Compound": "C[C@@H](N)[C@H]1CC[C@H](C(=O)Nc2ccncc2)CC1", "Units": "%", "residual activity": 122}
{"Compound": "O=C1NC(=O)c2cc(Nc3ccc(F)cc3)c(Nc3ccc(F)cc3)cc21", "Units": "%", "residual activity": 68}
{"Compound": "Oc1ccc(Nc2nc(-c3ccc(Cl)cc3)cs2)cc1", "Units": "%", "residual activity": 122}
{"Compound": "CC(C)n1cnc2/c(=N/c3cccc(Cl)c3)nc(NCCO)[nH]c21", "Units": "%", "residual activity": 81}
{"Compound": "Cn1cc(/C=C2\\C(=O)Nc3ccc(S(N)(=O)=O)cc32)c2ccccc21", "Units": "%", "residual activity": 11}
{"Compound": "COc1ccc(C(=O)Nc2sc3c(c2C(N)=O)CCCC3)cc1OC", "Units": "%", "residual activity": 100}

Value of measured residual activity for the entry CO[C@@H]1[C@H](N(C)C(=O)c2ccccc2)C[C@H]2O[C@]1(C)n1c3ccccc3c3c4c(c5c6ccccc6n2c5c31)C(=O)NC4 : 1

Reported residual activity ( COc1ccc(OC)c2c(=S)c3ccccc3[nH]c12 ) = 97

The recorded residual activity for O=C1Nc2cc(Br)ccc2/C1=C1/Nc2ccccc2/C1=N\O is 21

Entry under test: CCN(CC)C(=O)c1ccc(Nc2nc(OCC3CCCCC3)c3nc[nH]c3n2)cc1 . Its residual activity was 1

Please fill in: residual activity reported for Cc1cc2ncc(-c3ccccc3)nc2cc1C = 81

Summary for this compound, COc1cc2ncc(-c3ccccc3)nc2cc1OC : residual activity is 58

Field residual activity (entry CC[n+]1c(/C=C/N(C)c2ccccc2)n(-c2ccccc2)c2ccc(-c3nc4ccccc4s3)cc21 ) reads 149

# residual activity of CCN(CC)CCCCN1c2ccccc2Oc2ccc(Cl)cc21 = 142

O=c1cc(-c2cccc3c2Sc2ccccc2S3)oc(N2CCOCC2)c1 yielded residual activity of 113

residual activity measured on Oc1c2ccccc2c2c3c(cccc13)N=N2 = 9

Reported residual activity for Nc1ccc2ncnc(NCCc3ccc(Oc4ccccc4)cc3)c2c1 was 124

Sure, the documented residual activity for O=Nc1c(-c2c(O)[nH]c3ccccc23)[nH]c2ccccc12 is 2

Noted for O=C1Nc2ccccc2/C1=C1/Nc2ccccc2/C1=N\OCCC(O)CO (configuration not stated) : its residual activity reads 1

Sure, the documented residual activity for Nc1nc(Nc2ccc(S(N)(=O)=O)cc2)nn1C(=S)Nc1c(F)cccc1F is 2

Value of measured residual activity for the entry CC(=O)c1ccc(N2CCOCC2)cc1O : 105

Lab book: residual activity of COc1cc2ncnc(N3CCN(C(=O)Nc4ccc(Oc5ccccc5)cc4)CC3)c2cc1OC noted as 124

----------
molecular target: Hepatocyte growth factor receptor (Homo sapiens) (UniProt P08581); settings: at 1 µM
Sequence (P08581 whole entry): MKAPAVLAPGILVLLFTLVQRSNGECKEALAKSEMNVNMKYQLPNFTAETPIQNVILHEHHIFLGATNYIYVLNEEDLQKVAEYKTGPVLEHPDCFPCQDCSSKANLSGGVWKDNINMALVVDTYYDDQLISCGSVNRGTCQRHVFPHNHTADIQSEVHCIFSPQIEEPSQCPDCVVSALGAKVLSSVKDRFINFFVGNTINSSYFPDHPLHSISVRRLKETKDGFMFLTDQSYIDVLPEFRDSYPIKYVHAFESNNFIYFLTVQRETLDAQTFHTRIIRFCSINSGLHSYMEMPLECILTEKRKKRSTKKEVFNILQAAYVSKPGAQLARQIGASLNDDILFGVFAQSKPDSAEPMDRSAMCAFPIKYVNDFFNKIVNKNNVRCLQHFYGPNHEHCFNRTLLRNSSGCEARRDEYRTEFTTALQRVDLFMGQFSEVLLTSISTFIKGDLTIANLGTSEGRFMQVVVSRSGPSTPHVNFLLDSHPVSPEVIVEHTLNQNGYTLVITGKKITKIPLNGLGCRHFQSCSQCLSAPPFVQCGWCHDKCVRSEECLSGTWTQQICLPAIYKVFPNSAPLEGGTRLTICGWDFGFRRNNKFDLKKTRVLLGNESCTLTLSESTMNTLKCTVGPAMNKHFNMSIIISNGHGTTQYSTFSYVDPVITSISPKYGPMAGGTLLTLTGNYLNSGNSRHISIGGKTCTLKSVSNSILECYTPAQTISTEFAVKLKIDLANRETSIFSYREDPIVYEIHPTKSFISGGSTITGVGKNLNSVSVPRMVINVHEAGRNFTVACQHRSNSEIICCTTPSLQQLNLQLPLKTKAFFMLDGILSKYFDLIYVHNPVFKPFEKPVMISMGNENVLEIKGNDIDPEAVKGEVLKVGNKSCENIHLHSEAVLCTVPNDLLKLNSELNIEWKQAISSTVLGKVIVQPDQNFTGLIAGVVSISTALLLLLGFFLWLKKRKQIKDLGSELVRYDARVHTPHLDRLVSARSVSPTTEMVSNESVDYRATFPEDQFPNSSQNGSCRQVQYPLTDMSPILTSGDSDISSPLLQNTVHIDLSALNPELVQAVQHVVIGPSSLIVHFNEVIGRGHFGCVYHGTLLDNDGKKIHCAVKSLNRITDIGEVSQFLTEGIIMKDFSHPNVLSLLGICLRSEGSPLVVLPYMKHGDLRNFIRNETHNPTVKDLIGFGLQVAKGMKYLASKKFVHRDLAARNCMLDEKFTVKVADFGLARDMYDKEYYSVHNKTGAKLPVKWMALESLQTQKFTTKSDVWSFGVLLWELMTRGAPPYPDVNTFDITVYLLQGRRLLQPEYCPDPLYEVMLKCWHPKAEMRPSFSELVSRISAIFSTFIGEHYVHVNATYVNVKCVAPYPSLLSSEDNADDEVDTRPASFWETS
Assay Endpoint: residual activity (%)
Supply the numeric figure in %, leaving out any unit text.

{"Compound": "O=C1Nc2ccccc2/C1=C1/Nc2ccccc2/C1=N\\OCCC(O)CO (stereo not drawn)", "residual activity / %": 45}
{"Compound": "CC(C)n1cnc2c(NCc3ccccc3)nc(NCCCO)nc21", "residual activity / %": 101}
{"Compound": "O=C1Nc2ccc(Br)cc2/C1=C\\c1cc2c([nH]1)CCCC2", "residual activity / %": 104}
{"Compound": "c1ccc(-c2n[nH]c3c2oc2ccccc23)cc1", "residual activity / %": 87}
{"Compound": "O=[N+]([O-])c1ccc(-c2nc(-c3ccc(F)cc3)c(-c3ccncc3)[nH]2)cc1", "residual activity / %": 128}

Record CC(=O)O/N=C1\C(=C2\C(=O)Nc3cc(Br)ccc32)Nc2ccccc21 . Reported residual activity: 89

Consider CO[C@@H]1[C@H](N(C)C(=O)c2ccccc2)C[C@H]2O[C@]1(C)n1c3ccccc3c3c4c(c5c6ccccc6n2c5c31)C(=O)NC4 . Its measured residual activity is 35

----------
biological target: Serine/threonine-protein kinase 3 (Homo sapiens) (UniProt Q13188); conditions: at 10 µM
Sequence (Q13188 whole entry): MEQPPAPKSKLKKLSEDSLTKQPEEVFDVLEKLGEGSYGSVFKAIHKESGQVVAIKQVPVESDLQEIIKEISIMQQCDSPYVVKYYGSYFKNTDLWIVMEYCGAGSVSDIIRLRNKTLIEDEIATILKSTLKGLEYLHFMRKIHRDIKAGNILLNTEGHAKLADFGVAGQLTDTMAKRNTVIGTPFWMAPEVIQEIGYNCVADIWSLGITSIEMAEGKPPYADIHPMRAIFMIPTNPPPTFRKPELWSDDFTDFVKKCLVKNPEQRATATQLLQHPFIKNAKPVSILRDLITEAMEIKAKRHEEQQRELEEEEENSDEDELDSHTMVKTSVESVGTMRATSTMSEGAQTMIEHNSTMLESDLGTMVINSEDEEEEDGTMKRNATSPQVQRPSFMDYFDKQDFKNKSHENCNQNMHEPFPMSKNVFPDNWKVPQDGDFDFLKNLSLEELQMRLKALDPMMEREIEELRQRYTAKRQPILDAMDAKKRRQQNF
We'd kindly ask you to apply these residual activity classes: group A (below 70%), group B (70% to below 90%), group C (90% or more)

Some entries whose results are on file:
{"Query Smiles": "Nc1nc(Nc2ccc(S(N)(=O)=O)cc2)nn1C(=S)Nc1c(F)cccc1F", "Target Entity": "Serine/threonine-protein kinase 3 (Homo sapiens) (UniProt Q13188)", "Discrete Label": "group A"}
{"Query Smiles": "N#C/C(=C(\\N)Sc1ccc(N)cc1)c1ccccc1C(F)(F)F", "Target Entity": "Serine/threonine-protein kinase 3 (Homo sapiens) (UniProt Q13188)", "Discrete Label": "group B"}
{"Query Smiles": "Cn1cc(/C=C2\\C(=O)Nc3ccc(S(N)(=O)=O)cc32)c2ccccc21", "Target Entity": "Serine/threonine-protein kinase 3 (Homo sapiens) (UniProt Q13188)", "Discrete Label": "group A"}
{"Query Smiles": "CCN(CC)CCCCN1c2ccccc2Oc2ccc(Cl)cc21", "Target Entity": "Serine/threonine-protein kinase 3 (Homo sapiens) (UniProt Q13188)", "Discrete Label": "group C"}

Request: Bin? O=C1c2ccccc2-[n+]2ccc3c([nH]c4ccccc43)c21
Response: group C

Request: State the class of the molecule shown: NC(=O)c1ccc2[nH]c(-c3ccc(Oc4ccc(Cl)cc4)cc3)nc2c1
Response: group B

Request: Class? Entry: CC(=O)O/N=C1\C(=C2\C(=O)Nc3cc(Br)ccc32)Nc2ccccc21
Response: group A

----------
target: Tyrosine-protein kinase HCK (Homo sapiens); conditions: at 10 µM
Could you mark each record 1 (yes) if its residual activity falls strictly under 50%, and 0 (no) if it equals or exceeds it?

As a guide, the following entries are already answered.
{"Query Smiles": "O=C1NC(=O)c2c1c1c3ccccc3[nH]c1c1[nH]c3cc(Br)ccc3c21", "Discrete Label": "0 (no)"}
{"Query Smiles": "Cc1cc(Nc2nc(-c3ccccc3)nc3ccccc23)n[nH]1", "Discrete Label": "1 (yes)"}
{"Query Smiles": "N#CC(C#N)=C(N)/C(C#N)=C/c1ccc(O)cc1", "Discrete Label": "0 (no)"}
{"Query Smiles": "O=C1Nc2cc(Br)ccc2/C1=C1/Nc2ccccc2/C1=N\\O", "Discrete Label": "1 (yes)"}

Below: the item to evaluate.
Request: Threshold test, residual activity < 50%: COc1ccc(C(=O)Nc2sc3c(c2C(N)=O)CCCC3)cc1OC
Response: 0 (no)

----------
Measured residual activity, listed per entry.
target: Cyclin-dependent kinase 2/cyclin A (Homo sapiens) (UniProt P24941+P20248+P78396); conditions: at 10 µM
Your answer should be a number followed by the unit of measure.

{"Compound": "O=C1Nc2ccccc2/C1=C1/Nc2ccccc2/C1=N\\OCCC(O)CO (configuration not stated)", "Assay Endpoint": "residual activity", "Meas Value": "11%"}
{"Compound": "CCN(CC)CCCCN1c2ccccc2Oc2ccc(Cl)cc21", "Assay Endpoint": "residual activity", "Meas Value": "102%"}
{"Compound": "c1ccc2c(-c3ccncc3)c[nH]c2c1", "Assay Endpoint": "residual activity", "Meas Value": "83%"}
{"Compound": "Cc1nc2cc3nc(-c4cccs4)cnc3cc2n1C", "Assay Endpoint": "residual activity", "Meas Value": "91%"}
{"Compound": "Cc1cc(Nc2nc(-c3ccccc3)nc3ccccc23)n[nH]1", "Assay Endpoint": "residual activity", "Meas Value": "25%"}

residual activity on Cyclin-dependent kinase 2/cyclin A (Homo sapiens) (UniProt P24941+P20248+P78396) for CN(C)CCCn1cc(C2=C(c3c[nH]c4ccccc34)C(=O)NC2=O)c2ccccc21 is 38%

Kindly note: Cyclin-dependent kinase 2/cyclin A (Homo sapiens) (UniProt P24941+P20248+P78396), CNc1cc2c(Nc3cccc(Br)c3)ncnc2cn1 , residual activity value reported: 94%
